molecular target: B56γ 31–380 (PP2A regulatory subunit B56) (UniProt Q13362 31-380); test: ITC
Square brackets hold non-standard residues; d marks the D form. Ends that are not written are not given here. pS = N[C@@H](COP(=O)(O)O)C(=O)O
Examples of binders with documented Kd follow.
Express the result in nM but write the number alone.

Take a look at these entries with their results.
binder	Kd [nM]
RDIASKKPLL[pS]PIPELPEVPE [pS-RepoMan peptide, 581-RDIASKKPLL-pS-PIPELPEVPE-601 (mono-phosphorylated RepoMan)]	100
KL[pS]PIIED[pS] [pSpS-BubR1 peptide, 668-KL-pS-PIIED-pS-676 (dually-phosphorylated BubR1)]	2000

Please turn your attention to the following entry.
What the record says about TLSIKKL[pS]PIIEDDREADH [pS-BubR1 peptide, 663-TLSIKKL-pS-PIIEDDREADH-681 (mono-phosphorylated BubR1)] : Kd is 600
